Ref: paper PMC11628833

- Tested target: human TLR7 (Homo sapiens)
- Sequence (Q9NYK1 27-1049): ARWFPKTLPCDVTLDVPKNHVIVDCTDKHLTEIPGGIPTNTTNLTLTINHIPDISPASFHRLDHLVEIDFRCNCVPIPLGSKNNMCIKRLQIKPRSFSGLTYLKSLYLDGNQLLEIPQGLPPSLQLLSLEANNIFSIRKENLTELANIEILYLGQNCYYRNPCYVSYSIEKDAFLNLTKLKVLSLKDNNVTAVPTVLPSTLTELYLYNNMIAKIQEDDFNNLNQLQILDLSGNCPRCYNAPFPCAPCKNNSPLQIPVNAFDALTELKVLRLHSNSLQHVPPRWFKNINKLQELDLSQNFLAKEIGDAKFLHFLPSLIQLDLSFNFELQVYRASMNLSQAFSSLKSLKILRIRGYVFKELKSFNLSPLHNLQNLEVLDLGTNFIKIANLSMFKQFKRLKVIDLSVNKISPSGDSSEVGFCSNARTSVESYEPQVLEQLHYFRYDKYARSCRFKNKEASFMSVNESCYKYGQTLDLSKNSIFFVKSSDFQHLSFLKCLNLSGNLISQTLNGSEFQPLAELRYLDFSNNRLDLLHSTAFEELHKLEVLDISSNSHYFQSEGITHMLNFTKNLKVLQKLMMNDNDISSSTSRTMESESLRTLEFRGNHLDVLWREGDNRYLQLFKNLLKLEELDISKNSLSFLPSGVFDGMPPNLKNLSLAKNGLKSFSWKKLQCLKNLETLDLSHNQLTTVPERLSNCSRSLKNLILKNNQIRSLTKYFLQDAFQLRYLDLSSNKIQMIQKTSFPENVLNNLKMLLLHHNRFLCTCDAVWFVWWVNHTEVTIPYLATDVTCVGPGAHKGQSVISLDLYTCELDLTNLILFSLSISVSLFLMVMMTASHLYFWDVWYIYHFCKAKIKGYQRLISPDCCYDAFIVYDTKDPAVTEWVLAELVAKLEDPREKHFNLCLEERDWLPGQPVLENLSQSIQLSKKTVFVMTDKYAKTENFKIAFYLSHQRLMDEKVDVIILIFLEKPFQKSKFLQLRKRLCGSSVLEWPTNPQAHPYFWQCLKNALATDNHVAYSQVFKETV
- Test details: SEAP reporter assay in HEK-Blue hTLR7 cells
Readout: IC50 (nM)
# output: bare number, implied unit nM

May I ask what IC50 has been recorded for O=C(c1ccc(Cl)cc1)N1CCN(c2ccc([N+](=O)[O-])c3ncccc23)CC1 ?
790

Fill in the blank: the reported IC50 of COc1cccc(C(=O)N2CCN(c3ccc([N+](=O)[O-])c4ncccc34)CC2)c1 is ____.
1280

Entry O=C(c1ccc([N+](=O)[O-])cc1)N1CCN(c2ccc([N+](=O)[O-])c3ncccc23)CC1 : reported IC50 = ?
640

GET /values?readout=IC50&item= O=C(c1ccccc1)N1CCN(c2ccc([N+](=O)[O-])c3ncccc23)CC1
1070

# lookup: IC50 of Cc1ccc(C(=O)N2CCN(c3ccc([N+](=O)[O-])c4ncccc34)CC2)cc1
860

More entries:
Consider the molecule O=[N+]([O-])c1ccc(-c2ccc(CO)cc2)c2cccnc12 and give its measured IC50.
660

May I ask what IC50 has been recorded for O=C(c1ccco1)N1CCN(c2ccc([N+](=O)[O-])c3ncccc23)CC1 ?
530

---

- Tested target: hTLR8 (Homo sapiens, UniProt Q9NR97)
- Sequence (Q9NR97 27-1041): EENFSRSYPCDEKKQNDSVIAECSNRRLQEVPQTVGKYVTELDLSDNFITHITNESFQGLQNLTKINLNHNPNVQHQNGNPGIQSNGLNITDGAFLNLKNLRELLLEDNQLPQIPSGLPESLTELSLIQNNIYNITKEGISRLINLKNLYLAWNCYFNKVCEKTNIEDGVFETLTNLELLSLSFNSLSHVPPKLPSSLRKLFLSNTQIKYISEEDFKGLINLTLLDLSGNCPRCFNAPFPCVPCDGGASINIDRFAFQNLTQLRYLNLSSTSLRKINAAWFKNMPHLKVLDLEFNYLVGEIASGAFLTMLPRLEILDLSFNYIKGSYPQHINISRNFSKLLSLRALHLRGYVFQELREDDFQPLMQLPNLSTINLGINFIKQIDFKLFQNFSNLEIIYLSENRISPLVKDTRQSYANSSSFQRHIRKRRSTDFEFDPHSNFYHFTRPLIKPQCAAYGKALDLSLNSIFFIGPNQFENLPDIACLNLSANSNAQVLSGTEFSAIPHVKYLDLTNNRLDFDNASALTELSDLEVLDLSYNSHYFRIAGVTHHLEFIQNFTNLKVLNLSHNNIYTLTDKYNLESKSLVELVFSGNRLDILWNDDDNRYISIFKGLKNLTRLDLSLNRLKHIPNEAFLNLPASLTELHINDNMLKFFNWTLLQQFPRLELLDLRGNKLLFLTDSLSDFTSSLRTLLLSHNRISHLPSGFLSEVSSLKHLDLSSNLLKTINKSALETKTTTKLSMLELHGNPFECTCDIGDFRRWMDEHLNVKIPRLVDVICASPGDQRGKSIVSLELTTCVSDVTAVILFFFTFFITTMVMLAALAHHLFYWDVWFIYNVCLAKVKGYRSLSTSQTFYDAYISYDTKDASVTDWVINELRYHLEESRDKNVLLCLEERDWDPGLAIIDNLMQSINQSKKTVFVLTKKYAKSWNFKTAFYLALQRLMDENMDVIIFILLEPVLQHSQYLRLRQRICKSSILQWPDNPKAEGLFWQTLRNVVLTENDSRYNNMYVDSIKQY
- Test details: SEAP reporter assay in HEK-Blue hTLR8 cells
IC50 values, listed per item
# number only, unit nM dropped from output

Example results:
What does the data say about its IC50? Entry: O=C(c1ccccc1)N1CCN(c2ccc([N+](=O)[O-])c3ncccc23)CC1
100

Requested field: IC50. Item: COc1ccc(C(=O)N2CCN(c3ccc(N)c4ncccc34)CC2)cc1
820

Reported IC50, compound COc1cccc(C(=O)N2CCN(c3ccc([N+](=O)[O-])c4ncccc34)CC2)c1 : ____
80

Sample Cc1ccc(C(=O)N2CCN(c3ccc([N+](=O)[O-])c4ncccc34)CC2)cc1 — what was its IC50?
110

Look at this compound and give its reported IC50. O=[N+]([O-])c1ccc(-c2ccc(CO)cc2)c2cccnc12
1300

Consider the compound O=C(c1ccc(Br)cc1)N1CCN(c2ccc([N+](=O)[O-])c3ncccc23)CC1 and give its measured IC50.
140

Next:
What does the record list as IC50 for O=C(c1ccco1)N1CCN(c2ccc([N+](=O)[O-])c3ncccc23)CC1 ?
100

IC50 for COc1ccc(C(=O)N2CCN(c3ccc([N+](=O)[O-])c4ncccc34)CC2)c(OC)c1 ?
60
